Tested on: Vero
Assay name: Cytotoxicity against African green monkey Vero cells assessed as reduction in cell survival incubated for 10 days by neutral red dye based colorimetric analysis
Recorded conditions: chlorocebus sabaeus, vero, 240 h; time 10 day

>  <Smiles representation>
CC1(C)[C@H]2CC[C@]1(C)[C@H](OC(=O)CCN1CCCCC1)C2.Cl

>  <Measured on>
Vero

>  <Units>
µM

>  <CC50>
279

$$$$

====

System: Influenza A virus
Assay name: Antiviral activity against Influenza A virus (H1N1)
Format: functional, organism-based
pIC50: −log10 of the molar value.

>  <Smiles representation>
CC1(C)[C@H]2CC[C@]1(C)[C@H](OC(=O)CCN1CCCCC1)C2

>  <Measured on>
Influenza A virus

>  <pIC50>
5.11

$$$$
>  <Smiles representation>
CC1(C)[C@@H]2CC[C@@]1(C)/C(=N/CCO)C2

>  <Measured on>
Influenza A virus

>  <pIC50>
5.29

$$$$
>  <Smiles representation>
CC1CCN(CCC(=O)O[C@@H]2C[C@@H]3CC[C@@]2(C)C3(C)C)CC1

>  <Measured on>
Influenza A virus

>  <pIC50>
4.82

$$$$
>  <Smiles representation>
CC1(C)[C@H]2CC[C@]1(C)[C@H](OC(=O)CCN1CCOCC1)C2

>  <Measured on>
Influenza A virus

>  <pIC50>
4.91

$$$$
>  <Smiles representation>
CN1CCN(CCC(=O)O[C@@H]2C[C@@H]3CC[C@@]2(C)C3(C)C)CC1

>  <Measured on>
Influenza A virus

>  <pIC50>
5.72

$$$$

====

Reported pIC50 values for the following compounds.
Tested on: Zaire ebolavirus
Assay name: Antiviral activity against Zaire ebolavirus infected in African green monkey Vero cells assessed as inhibition of viral infection by measuring […] incubated for 10 days by neutral red dye based colorimetric analysis
Type: functional, organism-based
Recorded conditions: vero; read-out: IC50
pIC50: −log10 of the molar value.

>  <Smiles representation>
CC1(C)[C@H]2CC[C@]1(C)[C@H](OC(=O)CCN1CCCCC1)C2

>  <Measured on>
Zaire ebolavirus

>  <pIC50>
4.32

$$$$
>  <Smiles representation>
CC1CCN(CCC(=O)O[C@@H]2C[C@@H]3CC[C@@]2(C)C3(C)C)CC1

>  <Measured on>
Zaire ebolavirus

>  <pIC50>
4.19

$$$$
>  <Smiles representation>
CC1(C)[C@H]2CC[C@]1(C)[C@H](OC(=O)CCN1CCCCC1)C2.Cl

>  <Measured on>
Zaire ebolavirus

>  <pIC50>
5.04

$$$$

====

Assay name: in vitro
Recorded conditions: human, HEK293T cells
Cut-off 70 on selectivity ratio, inclusive. At or above means T; below means F.

>  <Smiles representation>
CCOC(=O)N1CCN(CCC(=O)O[C@@H]2C[C@@H]3CC[C@@]2(C)C3(C)C)CC1

>  <Group label>
F

$$$$
>  <Smiles representation>
CC1(C)[C@@H]2CC[C@@]1(C)[C@H](NC(=O)CN1CCOCC1)C2

>  <Group label>
T

$$$$
>  <Smiles representation>
CCN1CCN(CC(=O)O[C@@H]2C[C@@H]3CC[C@@]2(C)C3(C)C)CC1

>  <Group label>
T

$$$$
>  <Smiles representation>
CC1(C)[C@H]2CC[C@]1(C)[C@H](OC(=O)CCN1CCN(CCO)CC1)C2

>  <Group label>
T

$$$$
>  <Smiles representation>
CN1CCN(CC(=O)N[C@@H]2C[C@H]3CC[C@]2(C)C3(C)C)CC1

>  <Group label>
F

$$$$
>  <Smiles representation>
CC1(C)[C@H]2CC[C@]1(C)[C@H](OC(=O)CCCN1CCCCCC1)C2

>  <Group label>
T

$$$$
>  <Smiles representation>
CC1CCN(CC(=O)O[C@@H]2C[C@@H]3CC[C@@]2(C)C3(C)C)CC1

>  <Group label>
F

$$$$
>  <Smiles representation>
CC1(C)[C@@H]2CC[C@@]1(C)[C@H](NC(=O)CCCN1CCOCC1)C2

>  <Group label>
F

$$$$

====

Assay name: Cytotoxicity against human HEK293T cells incubated for 48 hrs by MTT assay
Type: cell-based, HEK-293T
Recorded conditions: HEK293T cells
# CC50 at 48 h values compiled below
Parameter measured: CC50 at 48 h (µM)

>  <Smiles representation>
CC1(C)[C@H]2CC[C@]1(C)[C@H](OC(=O)CN1CCN(CCN)CC1)C2

>  <Experimental value>
247

$$$$
>  <Smiles representation>
CC1CCN(CC(=O)O[C@H]2C[C@@H]3CC[C@@]2(C)C3(C)C)CC1

>  <Experimental value>
34.1

$$$$
>  <Smiles representation>
CC1CCN(CC(=O)N[C@@H]2C[C@H]3CC[C@]2(C)C3(C)C)CC1

>  <Experimental value>
78

$$$$
>  <Smiles representation>
CN(C)CC(=O)O[C@@H]1C[C@@H]2CC[C@@]1(C)C2(C)C

>  <Experimental value>
389

$$$$
>  <Smiles representation>
CC1(C)[C@H]2CC[C@]1(C)[C@H](OC(=O)CCCN1CCCCC1)C2

>  <Experimental value>
74.8

$$$$
>  <Smiles representation>
CC1(C)[C@H]2CC[C@]1(C)[C@H](OC(=O)CCCN1CCN(Cc3ccccc3)CC1)C2

>  <Experimental value>
30.1

$$$$
>  <Smiles representation>
CCN1CCN(CC(=O)N[C@@H]2C[C@H]3CC[C@]2(C)C3(C)C)CC1

>  <Experimental value>
660

$$$$
>  <Smiles representation>
CCN1CCN(CCC(=O)N[C@@H]2C[C@H]3CC[C@]2(C)C3(C)C)CC1

>  <Experimental value>
565

$$$$
>  <Smiles representation>
CN1CCN(CCC(=O)O[C@@H]2C[C@@H]3CC[C@@]2(C)C3(C)C)CC1

>  <Experimental value>
282

$$$$

====

Assay name: in vitro
Recorded conditions: human, HEK293T cells
Parameter measured: selectivity ratio

>  <Smiles representation>
CN1CCN(CCC(=O)N[C@@H]2C[C@H]3CC[C@]2(C)C3(C)C)CC1

>  <Experimental value>
187

$$$$
>  <Smiles representation>
CCN(CC)CCC(=O)O[C@@H]1C[C@@H]2CC[C@@]1(C)C2(C)C

>  <Experimental value>
26

$$$$
>  <Smiles representation>
CCN1CCN(CC(=O)N[C@@H]2C[C@H]3CC[C@]2(C)C3(C)C)CC1

>  <Experimental value>
78

$$$$
>  <Smiles representation>
CC1(C)[C@H]2CC[C@]1(C)[C@H](OC(=O)CCCN1CCOCC1)C2

>  <Experimental value>
33

$$$$
>  <Smiles representation>
CC1(C)[C@H]2CC[C@]1(C)[C@@H](OC(=O)CN1CCCCC1)C2

>  <Experimental value>
25

$$$$
>  <Smiles representation>
CC1(C)[C@H]2CC[C@]1(C)[C@H](OC(=O)CN1CCOCC1)C2

>  <Experimental value>
13

$$$$
>  <Smiles representation>
CN(C)CCCC(=O)O[C@@H]1C[C@@H]2CC[C@@]1(C)C2(C)C

>  <Experimental value>
67

$$$$
>  <Smiles representation>
CC1(C)[C@H]2CC[C@]1(C)[C@H](OC(=O)CCN1CCOCC1)C2

>  <Experimental value>
36

$$$$
>  <Smiles representation>
CCN1CCN(CCC(=O)N[C@@H]2C[C@H]3CC[C@]2(C)C3(C)C)CC1

>  <Experimental value>
908

$$$$

====

Assay name: Cytotoxicity against human HEK293T cells incubated for 48 hrs by MTT assay
Format: cell-based, HEK-293T
Recorded conditions: HEK293T cells
Assign a class from recorded CC50 at 48 h; defined classes: bin 1 = under 100 µM, bin 2 = from 100 µM up to 300 µM, bin 3 = 300 µM and over

>  <Compound>
CC1(C)[C@H]2CC[C@]1(C)[C@H](OC(=O)CN1CCCCC1)C2

>  <Group label>
bin 2

$$$$
>  <Compound>
CCOC(=O)N1CCN(CC(=O)O[C@@H]2C[C@@H]3CC[C@@]2(C)C3(C)C)CC1

>  <Group label>
bin 2

$$$$
>  <Compound>
CCN1CCN(CCCC(=O)O[C@@H]2C[C@@H]3CC[C@@]2(C)C3(C)C)CC1

>  <Group label>
bin 2

$$$$
>  <Compound>
CC1(C)[C@H]2CC[C@]1(C)[C@H](OC(=O)CCCN1CCCCCC1)C2

>  <Group label>
bin 1

$$$$
>  <Compound>
CC1(C)[C@H]2CC[C@]1(C)[C@H](OC(=O)CCN1CCN(CCO)CC1)C2

>  <Group label>
bin 2

$$$$
>  <Compound>
CC1CCN(CCCC(=O)N[C@@H]2C[C@H]3CC[C@]2(C)C3(C)C)CC1

>  <Group label>
bin 2

$$$$
>  <Compound>
CC1(C)[C@@H]2CC[C@@]1(C)[C@H](OC(=O)CN1CCCCC1)C2

>  <Group label>
bin 1

$$$$
>  <Compound>
CC1(C)[C@H]2CC[C@]1(C)[C@H](OC(=O)CCCN1CCN(CCO)CC1)C2

>  <Group label>
bin 2

$$$$
>  <Compound>
CN[C@H]1CC[C@@H](c2ccc(Cl)c(Cl)c2)c2ccccc21 [SERTRALINE]

>  <Group label>
bin 3

$$$$
>  <Compound>
CC1(C)[C@H]2CC[C@]1(C)[C@H](OC(=O)CN1CCN(Cc3ccccc3)CC1)C2

>  <Group label>
bin 1

$$$$
>  <Compound>
CC1CCN(CCCC(=O)O[C@@H]2C[C@@H]3CC[C@@]2(C)C3(C)C)CC1

>  <Group label>
bin 2

$$$$
>  <Compound>
CC1(C)[C@H]2CC[C@]1(C)[C@H](OC(=O)CCN1CCN(Cc3ccccc3)CC1)C2

>  <Group label>
bin 1

$$$$
>  <Compound>
CCN1CCN(CCC(=O)O[C@@H]2C[C@@H]3CC[C@@]2(C)C3(C)C)CC1

>  <Group label>
bin 2

$$$$
>  <Compound>
CC1(C)[C@H]2CC[C@]1(C)[C@H](OC(=O)CN1CCOCC1)C2

>  <Group label>
bin 3

$$$$
>  <Compound>
CC1(C)[C@@H]2CC[C@@]1(C)[C@H](NC(=O)CN1CCOCC1)C2

>  <Group label>
bin 3

$$$$
>  <Compound>
CC1(C)[C@H]2CC[C@]1(C)[C@H](OC(=O)CCCN1CCOCC1)C2

>  <Group label>
bin 2

$$$$
>  <Compound>
CCN1CCN(CCCC(=O)N[C@@H]2C[C@H]3CC[C@]2(C)C3(C)C)CC1

>  <Group label>
bin 2

$$$$
